# protocol: in vitro
# assay context: human, Caco-2, Caco-2 (cm/sec)
Where a SMILES comes first, the peptide text is derived from it. Bridges are numbered along the chain shown (N, C = ends). [ ]: non-standard residue; d: D form. The star is where a group is joined. NMehPhe = CN[C@@H](CCc1ccccc1)C(=O)O; Hyp = O=C(O)[C@@H]1C[C@@H](O)CN1; NMeF = CN[C@@H](Cc1ccccc1)C(=O)O; CH2CONHtBu = CC(C)(C)NC(=O)C*; NMeL = CN[C@@H](CC(C)C)C(=O)O; NMeA = CN[C@@H](C)C(=O)O; Piperidide = C1CCN(*)CC1; Ethyl(2-OH) = OCC*; Sar = CNCC(=O)O; tBu = CC(C)(C)*
Listing of entries alongside the reported Papp.
API: value field is a number in ×10⁻⁶ cm/s; no unit string.

compound	endpoint	val
CC(C)C[C@@H]1NC(=O)[C@H](CC(C)C)N(C)C(=O)[C@H](CCc2ccccc2)N(C)C(=O)[C@H](COCC(=O)NC(C)(C)C)NC(=O)[C@H](CC(C)C)N(C)C(=O)C[C@@H](C(=O)N2CCCCC2)NC(=O)[C@H](C)N(C)C(=O)CN(C)C(=O)[C@H]([C@@H](C)O)NC(=O)[C@H](CCc2ccccc2)N(C)C(=O)[C@H](CC(C)C)N(C)C1=O [AP16] ([NMeL]S(CH2CONHtBu)[NMehPhe][NMeL]L[NMeL][NMehPhe]T[Sar][NMeA]D-Piperidide; lactam N-11)	Papp	0.27

Okay, next one:
Reported Papp ( CC(C)C[C@H]1NC(=O)C[C@@H](C(=O)N2CCCCC2)NC(=O)[C@H](CC(C)C)N(C)C(=O)[C@H](Cc2ccccc2)NC(=O)[C@H](Cc2ccccc2)N(C)C(=O)[C@H]([C@@H](C)O)NC(=O)[C@H](CC(C)C)N(C)C(=O)[C@@H]2C[C@@H](OCCO)CN2C(=O)[C@H](CC(C)C)N(C)C(=O)[C@H](COC(C)(C)C)NC(=O)[C@@H]2CCCN2C1=O [AP234] ([dL]PS(tBu)[NMeL][Hyp](Ethyl(2-OH))[NMeL]T[NMeF]F[NMeL]D-Piperidide; lactam N-11) ) = 1.3

###

# protocol: in vitro
# assay context: human, Caco-2, Caco-2 (cm/sec)
*1 amine or outer side, *2 acyl side, *3 side chain or, on linkers, in order; H or OH if unused. Where a SMILES comes first, the peptide text is derived from it. Bridges are numbered along the chain shown (N, C = ends). [ ]: non-standard residue; d: D form. The star is where a group is joined. NMePhe(3-Cl) = CN[C@@H](Cc1cccc(Cl)c1)C(=O)O; NMehPhe = CN[C@@H](CCc1ccccc1)C(=O)O; X7 = O=C(C[C@H](COCCO)N[*:1])[*:2]; NMeF = CN[C@@H](Cc1ccccc1)C(=O)O; NMeGABA = CN(CCCC(=O)[*:2])[*:1]; Butyl(3-Me,3-OH) = CC(C)(O)CC*; NMeL = CN[C@@H](CC(C)C)C(=O)O; NMeAbu = CC[C@H](NC)C(=O)O; Piperidide = C1CCN(*)CC1; CH2CMe2OH = CC(C)(O)C*; X8 = C1COC[C@@H](C*)N1; NBuGly = CCCCNCC(=O)O; Isopentyl = CC(C)CC*; NPrGly = CCCNCC(=O)O; Ethyl(2-OH) = OCC*; Sar = CNCC(=O)O; tBu = CC(C)(C)*
// NB: equality with 0.5 ×10⁻⁶ cm/s counts as Not met; only Papp strictly below is Met

molecule	classification
CC(C)C[C@H]1C(=O)N[C@@H]([C@@H](C)O)C(=O)N(C)CC(=O)N(C)[C@@H](Cc2cccc(Cl)c2)C(=O)N(C)[C@@H](CC(C)C)C(=O)N[C@@H](COC(C)(C)C)C(=O)N(C)[C@@H](CC(C)C)C(=O)N[C@H](C(=O)N2CCCCC2)CC(=O)N(C)CC(=O)N(C)[C@@H](CCc2ccccc2)C(=O)N[C@@H](COCCC(C)(C)O)C(=O)N1C [AP57] ([Sar][NMehPhe]S(Butyl(3-Me,3-OH))[NMeL]T[Sar][NMePhe(3-Cl)][NMeL]S(tBu)[NMeL]D-Piperidide; lactam N-11)	Not met
CC(C)CCOC[C@@H]1NC(=O)[C@H](Cc2ccccc2)N(C)C(=O)[C@H](Cc2ccccc2)N(C)C(=O)[C@H](COCC(C)(C)O)NC(=O)[C@H](CC(C)C)N(C)C(=O)CCCN(C)C(=O)C[C@@H](C(=O)N2CCCCC2)NC(=O)[C@H](CC(C)C)N(C)C(=O)[C@H](CC(C)C)N(C)C(=O)[C@H]([C@@H](C)O)NC(=O)[C@H](CC(C)C)N(C)C1=O [AP03] ([NMeGABA][NMeL]S(CH2CMe2OH)[NMeF][NMeF]S(Isopentyl)[NMeL]T[NMeL][NMeL]D-Piperidide; lactam N-11)	Met
CCCCN1CC(=O)N(C)[C@@H](Cc2ccccc2)C(=O)N[C@@H](COCCO)CC(=O)N(C)[C@@H](CC(C)C)C(=O)N[C@@H]([C@@H](C)O)C(=O)N(CCC)CC(=O)N(C)[C@@H](Cc2ccccc2)C(=O)N(C)[C@@H](CC(C)C)C(=O)N[C@@H](CC(C)C)C(=O)N(C)[C@@H](CC(C)C)C(=O)N[C@H](C(=O)N2CCCCC2)CC1=O [AP25] ([NBuGly][NMeF][X7][NMeL]T[NPrGly][NMeF][NMeL]L[NMeL]D-Piperidide; lactam N-11)	Not met

Input: hey, is Papp for CCCCN1CC(=O)N(C)[C@@H](CC(C)C)C(=O)N[C@H](C(=O)N2CCCCC2)CC(=O)N(C)[C@@H](CC)C(=O)N[C@@H](CC(C)C)C(=O)N(C)[C@@H](CC(C)C)C(=O)N(C)[C@@H](Cc2ccccc2)C(=O)N[C@@H](COC[C@@H]2COCCN2)C(=O)N(C)[C@@H](CC)C(=O)N(C)[C@@H](CC(C)C)C(=O)N[C@@H]([C@@H](C)O)C1=O [AP242] ([NMeAbu]L[NMeL][NMeF]S(X8)[NMeAbu][NMeL]T[NBuGly][NMeL]D-Piperidide; lactam N-11) lower than 0.5 ×10⁻⁶ cm/s or not?
Output: Not met

Input: # check: Papp < 0.5 ×10⁻⁶ cm/s for CCCN1CC(=O)N(C)[C@@H](Cc2cccc(Cl)c2)C(=O)N(C)[C@@H](CC(C)C)C(=O)N[C@@H](COCCO)C(=O)N(C)[C@@H](CC(C)C)C(=O)N[C@H](C(=O)N2CCCCC2)CC(=O)N(C)CC(=O)N(C)[C@@H](CCc2ccccc2)C(=O)N[C@@H]([C@@H](C)CC)C(=O)N(C)[C@@H](CC(C)C)C(=O)N[C@@H]([C@@H](C)O)C1=O [Compound A08] ([Sar][NMehPhe]I[NMeL]T[NPrGly][NMePhe(3-Cl)][NMeL]S(Ethyl(2-OH))[NMeL]D-Piperidide; lactam N-11)
Output: Met
